molecular target: UniProt Q8IXJ6; assay: Inhibition of recombinant human SIRT2 deacylation activity using Fluor de Lys Sirt2 as substrate measured at 5 mins interval for 30 mins in presence of NAD+ by fluorescence assay
Sequence (Q8IXJ6 whole entry): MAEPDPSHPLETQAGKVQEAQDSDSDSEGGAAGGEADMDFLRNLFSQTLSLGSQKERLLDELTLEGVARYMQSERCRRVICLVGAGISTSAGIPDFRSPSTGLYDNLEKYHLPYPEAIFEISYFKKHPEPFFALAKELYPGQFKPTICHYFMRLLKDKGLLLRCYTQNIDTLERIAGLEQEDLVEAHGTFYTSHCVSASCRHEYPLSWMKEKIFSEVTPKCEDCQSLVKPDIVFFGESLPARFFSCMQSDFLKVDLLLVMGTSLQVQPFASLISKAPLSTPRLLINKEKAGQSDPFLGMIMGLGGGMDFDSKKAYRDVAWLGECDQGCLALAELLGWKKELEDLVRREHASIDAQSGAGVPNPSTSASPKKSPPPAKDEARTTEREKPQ
Counter-ions that a name gives are not always drawn. Residues, ends and D or L forms follow the SMILES beside them. *: point of attachment. Phenylacetyl(4-E-phenylazo) = O=C(Cc1ccc(/N=N/c2ccccc2)cc1)*; X4 = CN(C)c1ccc(/N=N/c2ccc(CC(=O)*)cc2)cc1; X2 = CN(C)c1ccc(/N=N/c2ccc(C(=O)*)cc2)cc1; X1 = O=C(Cc1ccc(/N=N/c2ccc(O)cc2)cc1)*; Tfa = O=C(C(F)(F)F)*
observable: IC50 (µM)

Below, each entry is followed by its recorded IC50 result.
INSERT INTO results (molecule, target_under_test, observable, measured) VALUES
  ('CC[C@H](C)[C@H](NC(C)=O)C(=O)N[C@@H](CCCCNC(=O)Cc1ccc(/N=N/c2ccccc2)cc1)C(=O)N[C@@H](CCCNC(=N)N)C(N)=O', 'UniProt Q8IXJ6', 'IC50', 0.11),
  ('C[C@H](NC(=O)[C@H](CCCCNC(=O)Cc1ccc(/N=N/c2ccc(OCc3ccccc3)cc2)cc1)NC(=O)OCc1ccccc1)C(N)=O', 'UniProt Q8IXJ6', 'IC50', 0.19),
  ('CC[C@H](C)[C@H](NC(=O)[C@H](CCCNC(=N)N)NC(C)=O)C(=O)N[C@@H](CCCCNC(=O)Cc1ccc(/N=N/c2ccc(N(C)C)cc2)cc1)C(=O)N[C@@H](CCCNC(=N)N)C(=O)N[C@@H](Cc1ccc(O)cc1)C(N)=O (Ac-RIK(X4)RY-NH2)', 'UniProt Q8IXJ6', 'IC50', 0.17),
  ('CC[C@H](C)[C@H](NC(=O)[C@H](CCCNC(=N)N)NC(C)=O)C(=O)N[C@@H](CCCCNC(=O)c1ccc(/N=N/c2ccc(N(C)C)cc2)cc1)C(=O)N[C@@H](CCCNC(=N)N)C(=O)N[C@@H](Cc1ccc(O)cc1)C(N)=O (Ac-RIK(X2)RY-NH2)', 'UniProt Q8IXJ6', 'IC50', 1.6),
  ('CC[C@H](C)[C@H](NC(=O)[C@H](CCCNC(=N)N)NC(C)=O)C(=O)N[C@@H](CCCCNC(=O)Cc1ccc(/N=N/c2ccccc2)cc1)C(=O)N[C@@H](CCCNC(=N)N)C(=O)N[C@@H](Cc1ccc(O)cc1)C(N)=O (Ac-RIK(Phenylacetyl(4-E-phenylazo))RY-NH2)', 'UniProt Q8IXJ6', 'IC50', 0.18);

P = CC[C@H](C)[C@H](NC(=O)[C@@H](NC(=O)[C@H](CCCCNC(=O)c1ccc(/N=N/c2ccc(N(C)C)cc2)cc1)NC(=O)[C@H](CC(=O)O)NC(=O)[C@H](CO)NC(C)=O)[C@@H](C)O)C(N)=O (Ac-SDK(X2)TI-NH2)
Q = CC[C@H](C)[C@H](NC(=O)[C@H](CCCNC(=N)N)NC(C)=O)C(=O)N[C@@H](CCCCNC(=O)Cc1ccc(/N=N/c2ccc(O)cc2)cc1)C(=O)N[C@@H](CCCNC(=N)N)C(=O)N[C@@H](Cc1ccc(O)cc1)C(N)=O (Ac-RIK(X1)RY-NH2)
R = C[C@H](NC(=O)[C@H](CCCCNC(=O)Cc1ccc(/N=N/c2ccc(O)cc2)cc1)NC(=O)OCc1ccccc1)C(N)=O
S = CC[C@H](C)[C@H](NC(=O)[C@H](CCCNC(=N)N)NC(C)=O)C(=O)N[C@@H](CCCCNC(=O)C(F)(F)F)C(=O)N[C@@H](CCCNC(=N)N)C(=O)N[C@@H](Cc1ccc(O)cc1)C(N)=O (Ac-RIK(Tfa)RY-NH2)
# input // ascending sort on recorded IC50 Provide your answer as the labels ordered per the instruction.
# output S, Q, R, P
(S: 0.067 µM, Q: 0.11 µM, R: 0.19 µM, P: 1.2 µM)

----------
molecular target: NAD-dependent protein deacetylase sirtuin-3, mitochondrial (Homo sapiens, UniProt Q9NTG7); test: Inhibition of recombinant human SIRT3 (118 to 399 residues) demyristoylase activity expressed in Escherichia coli using p53(Myr)-AMC as substrate measured after 3 hrs in presence of NAD+ and trypsin by fluorescence assay
Sequence (Q9NTG7 whole entry, the tested form may be a part): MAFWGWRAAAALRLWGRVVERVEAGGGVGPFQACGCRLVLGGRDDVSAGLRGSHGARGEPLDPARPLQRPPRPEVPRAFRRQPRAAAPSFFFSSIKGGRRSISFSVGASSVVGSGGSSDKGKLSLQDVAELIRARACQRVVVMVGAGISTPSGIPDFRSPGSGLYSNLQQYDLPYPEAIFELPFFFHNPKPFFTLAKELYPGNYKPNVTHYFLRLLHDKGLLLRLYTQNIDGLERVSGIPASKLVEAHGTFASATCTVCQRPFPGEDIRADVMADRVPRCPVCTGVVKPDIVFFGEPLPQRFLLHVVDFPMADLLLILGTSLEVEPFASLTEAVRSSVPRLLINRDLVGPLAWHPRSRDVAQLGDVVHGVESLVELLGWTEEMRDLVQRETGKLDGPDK
pIC50: −log10 of the molar value. Non-standard residues stand in square brackets, D forms with d. Residues, ends and D or L forms follow the SMILES beside them. *: point of attachment. Phenylacetyl(4-E-phenylazo) = O=C(Cc1ccc(/N=N/c2ccccc2)cc1)*; Lys(thiomyristoyl) = CCCCCCCCCCCCCC(=S)NCCCC[C@H](N)C(=O)O; X5 = CCN(CC)c1ccc(/N=N/c2ccc(CC(=O)*)cc2)cc1; X4 = CN(C)c1ccc(/N=N/c2ccc(CC(=O)*)cc2)cc1; X1 = O=C(Cc1ccc(/N=N/c2ccc(O)cc2)cc1)*
observable: pIC50

Below, each entry is followed by its recorded pIC50 result.
INSERT INTO results (compound, observable, measured) VALUES
  ('CC[C@H](C)[C@H](NC(=O)[C@H](CCCNC(=N)N)NC(C)=O)C(=O)N[C@@H](CCCCNC(=O)Cc1ccc(/N=N/c2ccc(N(C)C)cc2)cc1)C(=O)N[C@@H](CCCNC(=N)N)C(=O)N[C@@H](Cc1ccc(O)cc1)C(N)=O (Ac-RIK(X4)RY-NH2)', 'pIC50', 6.48),
  ('CC[C@H](C)[C@H](NC(=O)[C@H](CCCNC(=N)N)NC(C)=O)C(=O)N[C@@H](CCCCNC(=O)Cc1ccc(/N=N/c2ccccc2)cc1)C(=O)N[C@@H](CCCNC(=N)N)C(=O)N[C@@H](Cc1ccc(O)cc1)C(N)=O (Ac-RIK(Phenylacetyl(4-E-phenylazo))RY-NH2)', 'pIC50', 6.47),
  ('CC[C@H](C)[C@H](NC(=O)[C@H](CCCNC(=N)N)NC(C)=O)C(=O)N[C@@H](CCCCNC(=O)Cc1ccc(/N=N/c2ccc(O)cc2)cc1)C(=O)N[C@@H](CCCNC(=N)N)C(=O)N[C@@H](Cc1ccc(O)cc1)C(N)=O (Ac-RIK(X1)RY-NH2)', 'pIC50', 6.72);

P = CCCCCCCCCCCCCC(=S)NCCCC[C@H](NC(=O)[C@@H](NC(=O)[C@H](CCCNC(=N)N)NC(C)=O)[C@@H](C)CC)C(=O)N[C@@H](CCCNC(=N)N)C(=O)N[C@@H](Cc1ccc(O)cc1)C(N)=O (Ac-RI[Lys(thiomyristoyl)]RY-NH2)
Q = CC[C@H](C)[C@H](NC(=O)[C@H](CCCNC(=N)N)NC(C)=O)C(=O)N[C@@H](CCCCNC(=O)Cc1ccc(/N=N/c2ccc(N(CC)CC)cc2)cc1)C(=O)N[C@@H](CCCNC(=N)N)C(=O)N[C@@H](Cc1ccc(O)cc1)C(N)=O (Ac-RIK(X5)RY-NH2)
# input Kindly identify which of P and Q has the larger recorded pIC50 value. In your reply, give the label of the chosen option.
# output P

----------
biological target: NAD-dependent protein deacetylase sirtuin-3, mitochondrial (Homo sapiens, UniProt Q9NTG7); experiment: Inhibition of recombinant human SIRT3 (118 to 399 residues) defatty-acylase activity expressed in Escherichia coli using SFP3 as substrate measured at 5 mins interval for 60 mins in presence of NAD+ by fluorescence assay
pIC50: −log10 of the molar value. Residues, ends and D or L forms follow the SMILES beside them. *: point of attachment. Phenylacetyl(4-E-phenylazo) = O=C(Cc1ccc(/N=N/c2ccccc2)cc1)*; X5 = CCN(CC)c1ccc(/N=N/c2ccc(CC(=O)*)cc2)cc1
Overview of reported pIC50 across a group of compounds:

Below, each entry is followed by its recorded pIC50 result.
INSERT INTO assay_data (compound, observable, measured) VALUES
  ('CC[C@H](C)[C@H](NC(=O)[C@@H](NC(=O)[C@H](CCCCNC(=O)Cc1ccc(/N=N/c2ccccc2)cc1)NC(=O)[C@H](CC(=O)O)NC(=O)[C@H](CO)NC(C)=O)[C@@H](C)O)C(N)=O (Ac-SDK(Phenylacetyl(4-E-phenylazo))TI-NH2)', 'pIC50', '< 5.70'),
  ('CC[C@H](C)[C@H](NC(=O)[C@H](CCCNC(=N)N)NC(C)=O)C(=O)N[C@@H](CCCCNC(=O)Cc1ccc(/N=N/c2ccc(N(CC)CC)cc2)cc1)C(=O)N[C@@H](CCCNC(=N)N)C(=O)N[C@@H](Cc1ccc(O)cc1)C(N)=O (Ac-RIK(X5)RY-NH2)', 'pIC50', 6.74);

Now take the following compound into account.
// pIC50 lookup, compound = C[C@H](NC(=O)[C@H](CCCCNC(=O)Cc1ccc(/N=N/c2ccc(OCCc3ccccc3)cc2)cc1)NC(=O)OCc1ccccc1)C(N)=O , result: < 5.70

----------
Overview of reported IC50 across a group of molecules:
target: NAD-dependent protein deacetylase sirtuin-1 (Homo sapiens); test: Inhibition of recombinant human C-terminal His6-tagged SIRT1 (Met1 to Ser747 residues) defatty-acylase activity expressed in Escherichia coli using SFP3 as substrate measured at 5 mins interval for 60 mins in presence of NAD+ by fluorescence assay
Sequence (Q96EB6 whole entry): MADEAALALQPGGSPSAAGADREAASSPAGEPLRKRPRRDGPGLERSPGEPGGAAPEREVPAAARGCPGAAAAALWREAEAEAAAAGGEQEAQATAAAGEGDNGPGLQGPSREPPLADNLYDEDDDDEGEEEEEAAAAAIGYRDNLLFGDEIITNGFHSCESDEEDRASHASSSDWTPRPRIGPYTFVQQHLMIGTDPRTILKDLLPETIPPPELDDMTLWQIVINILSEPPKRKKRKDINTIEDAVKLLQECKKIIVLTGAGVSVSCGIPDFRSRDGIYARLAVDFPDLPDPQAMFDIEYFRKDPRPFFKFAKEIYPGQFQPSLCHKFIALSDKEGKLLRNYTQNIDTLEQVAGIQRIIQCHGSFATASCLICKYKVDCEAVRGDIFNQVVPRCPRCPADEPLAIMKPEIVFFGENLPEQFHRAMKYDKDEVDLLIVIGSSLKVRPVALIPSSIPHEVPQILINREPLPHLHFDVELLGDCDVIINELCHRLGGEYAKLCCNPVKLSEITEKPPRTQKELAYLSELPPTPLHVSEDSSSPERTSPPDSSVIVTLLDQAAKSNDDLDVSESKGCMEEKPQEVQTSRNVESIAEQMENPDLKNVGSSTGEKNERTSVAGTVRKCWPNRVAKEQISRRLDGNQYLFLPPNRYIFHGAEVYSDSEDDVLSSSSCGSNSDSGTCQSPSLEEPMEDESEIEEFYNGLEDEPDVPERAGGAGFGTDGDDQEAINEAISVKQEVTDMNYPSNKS
Residues, ends and D or L forms follow the SMILES beside them. *: point of attachment. Phenylacetyl(4-E-phenylazo) = O=C(Cc1ccc(/N=N/c2ccccc2)cc1)*; X2 = CN(C)c1ccc(/N=N/c2ccc(C(=O)*)cc2)cc1

INSERT INTO results (molecule, measured) VALUES
  ('CC[C@H](C)[C@H](NC(=O)[C@H](CCCNC(=N)N)NC(C)=O)C(=O)N[C@@H](CCCCNC(=O)c1ccc(/N=N/c2ccc(N(C)C)cc2)cc1)C(=O)N[C@@H](CCCNC(=N)N)C(=O)N[C@@H](Cc1ccc(O)cc1)C(N)=O (Ac-RIK(X2)RY-NH2)', '> 2000 nM'),
  ('C[C@H](NC(=O)[C@H](CCCCNC(=O)Cc1ccc(/N=N/c2ccc(OCCc3ccccc3)cc2)cc1)NC(=O)OCc1ccccc1)C(N)=O', '> 2000 nM');

Now take the following molecule into account.
NAD-dependent protein deacetylase sirtuin-1 (Homo sapiens) IC50 of CC[C@H](C)[C@H](NC(=O)[C@@H](NC(=O)[C@H](CCCCNC(=O)Cc1ccc(/N=N/c2ccccc2)cc1)NC(=O)[C@H](CC(=O)O)NC(=O)[C@H](CO)NC(C)=O)[C@@H](C)O)C(N)=O (Ac-SDK(Phenylacetyl(4-E-phenylazo))TI-NH2) is > 2000 nM
